assayed_system: STK25 (human) (UniProt O00506)
Sequence (O00506 whole entry, looked up): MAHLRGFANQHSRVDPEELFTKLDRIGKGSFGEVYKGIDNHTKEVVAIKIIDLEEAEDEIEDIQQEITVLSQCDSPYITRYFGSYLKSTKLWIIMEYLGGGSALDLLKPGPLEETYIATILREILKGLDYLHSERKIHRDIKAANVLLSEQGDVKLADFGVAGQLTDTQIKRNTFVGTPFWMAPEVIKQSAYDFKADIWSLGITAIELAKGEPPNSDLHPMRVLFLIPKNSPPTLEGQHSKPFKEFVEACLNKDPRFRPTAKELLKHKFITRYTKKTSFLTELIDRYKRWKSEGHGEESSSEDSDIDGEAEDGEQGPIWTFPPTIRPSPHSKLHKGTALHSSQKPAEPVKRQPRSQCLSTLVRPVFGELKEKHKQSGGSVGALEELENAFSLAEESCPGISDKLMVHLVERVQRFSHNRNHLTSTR
protocol_description: radiometric filter-binding kinase assay, Kinase HotSpot
run_parameters: compound 0.5 µM; ATP 10 µM
outcome_measure: residual activity (%)
Field format: number, assumed %, no unit text.

Req: Record request: residual activity value, item `Oc1ccc(-c2nc(-c3ccc(F)cc3)c(-c3ccncc3)[nH]2)cc1`
Resp: 115

Req: Record request: residual activity value, item `COc1ccc(-c2cnc3c(-c4ccsc4)cnn3c2)cc1`
Resp: 102

Req: Record request: residual activity value, item `NC(=O)c1ccc(N(C(N)=O)c2c(F)cccc2F)nc1-c1ccc(F)cc1F`
Resp: 97.1

Req: Record request: residual activity value, item `CCN1/C(=C/C(C)=O)Sc2ccc(OC)cc21`
Resp: 98

Req: Record request: residual activity value, item `Cc1cc2ncc(-c3ccccc3)nc2cc1C`
Resp: 92.5

Req: Record request: residual activity value, item `CC(C)[C@H](CO)Nc1nc(Nc2cccc(Cl)c2)c2ncn(C(C)C)c2n1`
Resp: 116

Req: Record request: residual activity value, item `C#Cc1cccc(Nc2ncnc3cc(OCCOC)c(OCCOC)cc23)c1`
Resp: 99.4

Req: Record request: residual activity value, item `CC(C)n1cnc2c(Nc3cccc(Cl)c3)nc(NCCO)nc21`
Resp: 92.9

Further cases:
Req: Record request: residual activity value, item `O=C(Nc1ccc(Cl)cc1)c1ccccc1NCc1ccncc1`
Resp: 91.6

Req: Record request: residual activity value, item `Clc1ccc(Nc2nnc(Cc3ccncc3)c3ccccc23)cc1`
Resp: 94

Req: Record request: residual activity value, item `Nc1n[nH]c2nnc(-c3c(-c4ccccc4)nn4ccccc34)cc12`
Resp: 84.2

Req: Record request: residual activity value, item `COc1cc2ncnc(Nc3ccc(F)c(Cl)c3)c2cc1OCCCN1CCOCC1`
Resp: 97.4

Req: Record request: residual activity value, item `Cc1ccc(NC(=O)c2ccc(CN3CCN(C)CC3)cc2)cc1Nc1nc(-c2cccnc2)cs1`
Resp: 95.5

Req: Record request: residual activity value, item O=C(NC(NC(=S)Nc1ccc(F)c([N+](=O)[O-])c1)C(Cl)(Cl)Cl)C(c1ccccc1)c1ccccc1 (configuration not stated)
Resp: 96.2

Req: Record request: residual activity value, item `Nc1nc(Nc2ccc(S(N)(=O)=O)cc2)nn1C(=S)Nc1c(F)cccc1F`
Resp: 8.18

Req: Record request: residual activity value, item CSc1nc(-c2ccc(F)cc2)c(-c2ccnc(NC(C)c3ccccc3)c2)[nH]1 (configuration not stated)
Resp: 118

Req: Record request: residual activity value, item `Nc1nc(Nc2ccc(S(N)(=O)=O)cc2)nn1C(=O)c1c(F)cccc1F`
Resp: 82.3

Req: Record request: residual activity value, item `CC(C)(C)c1nc2c3ccc(F)cc3c3c(=O)[nH]ccc3c2[nH]1`
Resp: 86.9

Req: Record request: residual activity value, item `COc1cc2nccc(Oc3ccc(NC(=S)NC(=O)c4ccccc4C)cc3)c2cc1OC`
Resp: 103

Req: Record request: residual activity value, item `O=c1cc(N2CCNCC2)oc2c(-c3ccccc3)cccc12`
Resp: 116

Req: Record request: residual activity value, item CS(=O)c1ccc(-c2nc(-c3ccc(F)cc3)c(-c3ccncc3)[nH]2)cc1 (configuration not stated)
Resp: 111

Req: Record request: residual activity value, item `O=c1cc(-c2cccc3c2Sc2ccccc2S3)oc(N2CCOCC2)c1`
Resp: 99.6

###

Listed next: entries and their corresponding residual activity.
assayed_system: MARK1 (human)
protocol_description: radiometric filter-binding kinase assay, Kinase HotSpot
run_parameters: compound 0.5 µM; ATP 10 µM

Consider the reported residual activity for these molecules:
Req: Find the measured residual activity: item `Cc1ccc(NC(=O)c2ccc(CN3CCN(C)CC3)cc2)cc1Nc1nc(-c2cccnc2)cs1` , target or system MARK1 (human).
Resp: 86.9%

Req: Find the measured residual activity: item `O=C1Cc2c([nH]c3ccc([N+](=O)[O-])cc23)-c2ccccc2N1` , target or system MARK1 (human).
Resp: 62.5%

Req: Find the measured residual activity: item `O=c1cc(N2CCNCC2)oc2c(-c3ccccc3)cccc12` , target or system MARK1 (human).
Resp: 99.3%

Req: Find the measured residual activity: item `CC(C)(C)c1nc2c3ccc(F)cc3c3c(=O)[nH]ccc3c2[nH]1` , target or system MARK1 (human).
Resp: 40.2%

Further cases:
Req: Find the measured residual activity: item `Nc1nc(Nc2ccc(S(N)(=O)=O)cc2)nn1C(=O)c1c(F)cccc1F` , target or system MARK1 (human).
Resp: 64.1%

Req: Find the measured residual activity: item `Nc1n[nH]c2nnc(-c3c(-c4ccccc4)nn4ccccc34)cc12` , target or system MARK1 (human).
Resp: 98%

###

assayed_system: PRKACA (human)
protocol_description: radiometric filter-binding kinase assay, Kinase HotSpot
run_parameters: compound 0.5 µM; ATP 10 µM
Listed next: entries and their corresponding residual activity.
Field format: number, assumed %, no unit text.

Req: Record request: residual activity value, item `O=C1Nc2cc(Br)ccc2/C1=C1/Nc2ccccc2/C1=N\O`
Resp: 106

Req: Record request: residual activity value, item `Nc1n[nH]c2nnc(-c3c(-c4ccccc4)nn4ccccc34)cc12`
Resp: 97.7

Req: Record request: residual activity value, item `CC(C)n1cnc2c(Nc3cccc(Cl)c3)nc(NCCO)nc21`
Resp: 99.5

Alright, here's another molecule for you.
Req: Record request: residual activity value, item `COc1ccc(-c2cnc3c(-c4ccsc4)cnn3c2)cc1`
Resp: 96.1

###

assayed_system: MARK1 (human) (UniProt Q9P0L2)
Sequence (Q9P0L2 whole entry, looked up): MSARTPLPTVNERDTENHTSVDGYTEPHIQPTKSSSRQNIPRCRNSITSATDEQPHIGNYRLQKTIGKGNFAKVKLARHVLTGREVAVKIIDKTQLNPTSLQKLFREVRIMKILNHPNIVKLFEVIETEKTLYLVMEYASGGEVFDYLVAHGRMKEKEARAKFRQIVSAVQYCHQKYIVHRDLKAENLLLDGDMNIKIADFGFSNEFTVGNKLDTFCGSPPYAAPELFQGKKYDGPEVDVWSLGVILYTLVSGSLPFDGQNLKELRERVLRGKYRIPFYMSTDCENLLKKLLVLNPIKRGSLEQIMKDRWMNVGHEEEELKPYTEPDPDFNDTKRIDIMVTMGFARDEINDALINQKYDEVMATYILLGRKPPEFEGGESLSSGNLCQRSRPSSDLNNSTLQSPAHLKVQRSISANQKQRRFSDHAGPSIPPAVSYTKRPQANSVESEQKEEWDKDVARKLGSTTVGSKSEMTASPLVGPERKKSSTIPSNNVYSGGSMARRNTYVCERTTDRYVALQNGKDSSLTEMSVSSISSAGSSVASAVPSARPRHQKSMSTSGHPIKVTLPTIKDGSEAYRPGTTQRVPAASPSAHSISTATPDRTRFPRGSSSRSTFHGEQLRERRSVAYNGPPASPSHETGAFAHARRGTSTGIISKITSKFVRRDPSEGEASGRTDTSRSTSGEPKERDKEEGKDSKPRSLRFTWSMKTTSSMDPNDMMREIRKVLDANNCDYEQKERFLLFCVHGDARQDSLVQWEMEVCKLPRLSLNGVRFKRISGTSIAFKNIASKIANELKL
protocol_description: radiometric filter-binding kinase assay, Kinase HotSpot
run_parameters: compound 0.5 µM; ATP 10 µM
Listed next: entries and their corresponding residual activity.
Field format: number, assumed %, no unit text.

Req: Find the measured residual activity: item `COc1ccc(-c2cnc3c(-c4ccsc4)cnn3c2)cc1` , target or system MARK1 (human) (UniProt Q9P0L2).
Resp: 98.9

Alright, here's another compound for you.
Req: Find the measured residual activity: item `Cc1cc2ncc(-c3ccccc3)nc2cc1C` , target or system MARK1 (human) (UniProt Q9P0L2).
Resp: 106

###

assayed_system: SRPK3 (human) (UniProt Q9UPE1)
Sequence (Q9UPE1 whole entry, looked up): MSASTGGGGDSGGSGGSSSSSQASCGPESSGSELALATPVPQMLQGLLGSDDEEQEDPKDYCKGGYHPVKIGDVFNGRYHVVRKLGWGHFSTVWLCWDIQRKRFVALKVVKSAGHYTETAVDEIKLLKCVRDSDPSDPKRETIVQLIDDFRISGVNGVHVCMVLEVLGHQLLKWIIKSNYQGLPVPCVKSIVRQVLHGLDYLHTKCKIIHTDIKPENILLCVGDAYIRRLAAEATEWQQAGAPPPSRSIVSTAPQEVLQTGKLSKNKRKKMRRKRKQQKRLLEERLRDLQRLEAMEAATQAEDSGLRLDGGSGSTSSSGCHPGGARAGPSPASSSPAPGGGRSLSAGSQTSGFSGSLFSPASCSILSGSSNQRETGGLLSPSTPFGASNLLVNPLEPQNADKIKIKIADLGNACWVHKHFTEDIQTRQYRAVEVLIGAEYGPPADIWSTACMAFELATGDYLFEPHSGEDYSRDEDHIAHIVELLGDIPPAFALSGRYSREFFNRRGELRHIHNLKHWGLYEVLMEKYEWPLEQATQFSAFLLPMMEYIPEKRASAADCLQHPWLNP
protocol_description: radiometric filter-binding kinase assay, Kinase HotSpot
run_parameters: compound 0.5 µM; ATP 10 µM
outcome_measure: residual activity (%)
Field format: number, assumed %, no unit text.

Consider the reported residual activity for these molecules:
Req: Record request: residual activity value, item CSc1nc(-c2ccc(F)cc2)c(-c2ccnc(NC(C)c3ccccc3)c2)[nH]1 (configuration not stated)
Resp: 92.8

Req: Record request: residual activity value, item `C#Cc1cccc(Nc2ncnc3cc(OCCOC)c(OCCOC)cc23)c1`
Resp: 101

Req: Record request: residual activity value, item `Cc1ccc(NC(=O)c2ccc(CN3CCN(C)CC3)cc2)cc1Nc1nc(-c2cccnc2)cs1`
Resp: 102

Req: Record request: residual activity value, item `CC(C)n1cnc2c(Nc3cccc(Cl)c3)nc(NCCO)nc21`
Resp: 47.7

Req: Record request: residual activity value, item `Oc1ccc(-c2nc(-c3ccc(F)cc3)c(-c3ccncc3)[nH]2)cc1`
Resp: 95.9

Further cases:
Req: Record request: residual activity value, item `CCCNC(=O)Nc1ccc(Oc2ncnc3cc(OC)c(OC)cc23)cc1Cl`
Resp: 95.8

Req: Record request: residual activity value, item `COc1cc2ncnc(Nc3ccc(F)c(Cl)c3)c2cc1OCCCN1CCOCC1`
Resp: 103

Req: Record request: residual activity value, item `O=C(Nc1ccc(Cl)cc1)c1ccccc1NCc1ccncc1`
Resp: 100

Req: Record request: residual activity value, item `Nc1nc(Nc2ccc(S(N)(=O)=O)cc2)nn1C(=S)Nc1c(F)cccc1F`
Resp: 48.7

Req: Record request: residual activity value, item `CCN1/C(=C/C(C)=O)Sc2ccc(OC)cc21`
Resp: 95

Req: Record request: residual activity value, item O=C(NC(NC(=S)Nc1ccc(F)c([N+](=O)[O-])c1)C(Cl)(Cl)Cl)C(c1ccccc1)c1ccccc1 (configuration not stated)
Resp: 98

Req: Record request: residual activity value, item `O=C1Nc2cc(Br)ccc2/C1=C1/Nc2ccccc2/C1=N\O`
Resp: 96.4

Req: Record request: residual activity value, item `CC(C)[C@H](CO)Nc1nc(Nc2cccc(Cl)c2)c2ncn(C(C)C)c2n1`
Resp: 70.4

Req: Record request: residual activity value, item `Nc1nc(Nc2ccc(S(N)(=O)=O)cc2)nn1C(=O)c1c(F)cccc1F`
Resp: 86.2

Req: Record request: residual activity value, item `NC(=O)c1ccc(N(C(N)=O)c2c(F)cccc2F)nc1-c1ccc(F)cc1F`
Resp: 105

Req: Record request: residual activity value, item `CC(C)(C)c1nc2c3ccc(F)cc3c3c(=O)[nH]ccc3c2[nH]1`
Resp: 58.6
